# System under test: T1, his-tagged B7-H3 (UniProt Q5ZPR3-2 29-245, limits assumed)
# T1 construct: also called CD276; not shown: His tag
# T1 sequence (looked up): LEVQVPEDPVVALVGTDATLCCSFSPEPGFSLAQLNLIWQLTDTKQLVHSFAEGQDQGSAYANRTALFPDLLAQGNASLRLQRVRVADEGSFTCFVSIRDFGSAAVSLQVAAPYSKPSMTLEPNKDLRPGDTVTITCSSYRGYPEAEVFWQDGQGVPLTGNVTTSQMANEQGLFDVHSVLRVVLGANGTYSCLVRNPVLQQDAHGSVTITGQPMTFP
# Test summary: SPR, Carterra LSA; binder captured by anti-human Fc, his-tagged B7-H3 injected
Measured parameter: kon
Put your answer as a value accompanied by its unit after it.

Prompt line: I would be grateful if you could share the reported kon for 40579p1.D8 scFv-Fc (scFv, V domains shown, Tested as scFv-Fc supernatant) VH: EVQLLESGGGLVQPGGSLRLSCAASGFTFSDYYMSWVRQAPGKGLEWVSSISISYGGTTYYADSVKGRFTISRDNSKNTLYLQMNSLRAEDTAVYYCARDRSPYQCRSMDVWGQGTTVTVSS VL: EIVLTQSPGTLSLSPGERATLSCRASQSIRSDLAWYQQKPGQAPRLLIYNTVTRATGVPDRFSGSGSGTEFTLTISSLQSEDFAVYYCQQYNSWPPLTFGGGTKVEIK .
Response line: 25700 M⁻¹ s⁻¹

Prompt line: I would be grateful if you could share the reported kon for 40511p1.1.C4 scFv-Fc (scFv, V domains shown) VH: DVQLVESGGGVVRPGESLRLSCAASGFTFSSYAMSWVRQAPGEGLEWVSRISGSGNSTDYAESVKGRFTISRDSSKNTLYLQMNSLRAEDTAVYYCAKHSTVSFFDYWGLGTLVTVSS VL: EIVLTQSPGTLSLSPGERATLSCRASQSISSRYLAWYQQKPGQAPRLLIYGASRRATGIPARFSGSGSGTEFTLTISSLQSEDFAVYYCQQYGHWPPLTFGGGTKVEIK .
Response line: 76900 M⁻¹ s⁻¹
